molecular target: HCV NS3 protease (Hepatitis C virus genotype 1a, UniProt P27958); construct: more particularly HCV NS3 proteases; assay: Enzyme inhibition of HCV NS3 serine protease (cleavage of peptide substrate / EDVV AbuC-p-nitroanilide, with or without NS4A); assay type: biochemical; conditions: Enzyme inhibition data; Ki from rate vs [inhibitor] plots, Morrison tight binding competitive inhibition fit; 30 C, pH 7.8; read-out: Ki
Sequence (P27958 1027-1208): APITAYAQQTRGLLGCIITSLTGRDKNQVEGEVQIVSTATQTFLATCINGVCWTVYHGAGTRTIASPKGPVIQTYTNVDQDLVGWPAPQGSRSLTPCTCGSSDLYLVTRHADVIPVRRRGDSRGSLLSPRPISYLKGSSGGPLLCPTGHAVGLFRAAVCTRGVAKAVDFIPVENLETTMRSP
pKi: −log10 of the molar value. Starred links: 1 amine or outer side, 2 acyl side, 3 side chain; linkers in the order of their positions; H or OH if unused. Non-standard residues stand in square brackets, D forms with d. Residues, ends and D or L forms follow the SMILES beside them. Groups on a side chain read outwards from the residue. ξ: configuration not given here. *: point of attachment. ξ(3-Amino-2-oxopentanoyl) = CCC(N[*:1])C(=O)C(=O)[*:2]; 2Nal = N[CH](Cc1ccc2ccccc2c1)C(=O)O; Pyrazinecarbonyl = O=C(c1cnccn1)*; X30 = O=[N+]([O-])c1cccc(N*)c1; X35 = Cc1noc(C)c1-c1nc(C*)no1; Hyp = O=C(O)[CH]1C[CH](O)CN1; X11 = c1ccc(-c2ccccc2C*)cc1; X24 = FC(F)(F)c1ccc(C*)cc1; X18 = CC(=O)c1cccc(N*)c1; X46 = Clc1cccc(Cl)c1N*; Abu = CC[CH](N)C(=O)O; X33 = N#Cc1ccc(C*)cc1; CO = O=C([*:1])[*:2]; NHBn = c1ccc(CN*)cc1; Glycolyl = O=C(CO)*; Bn = c1ccc(C*)cc1
// reported pKi for each item listed

# molecule, pKi
records = [
    ("CCC(NC(=O)C(CC(C)C)NC(=O)C(NC(=O)C(NC(=O)C(CC(=O)O)NC(=O)C(CCC(=O)O)NC(C)=O)C(C)C)C(C)C)C(=O)C(=O)NCc1ccccc1 (stereo not shown) [Compound 102] (Ac-EDVVL[ξ(3-Amino-2-oxopentanoyl)]-NHBn; configuration not given here)", "> 6.00"),
    ("CCC(C=O)NC(=O)C1CC(OCc2ccccc2)CN1C(=O)C(NC(=O)c1c(C)cc(C)cc1C)C(C)C (stereo not shown)", "< 4.00"),
    ("CCC(C=O)NC(=O)C1CC(OC(=O)Nc2cccc(C(C)=O)c2)CN1C(=O)C(NC(=O)C(NC(=O)c1cnccn1)C(C)C)C(C)C (stereo not shown) [Compound 36] (Pyrazinecarbonyl-VV[Hyp]([CO-X18])[Abu]-aldehyde; configuration not given here)", "< 4.00"),
    ("CCC(C=O)NC(=O)C1CC(NC(=O)c2ccc(Cl)c(Cl)c2)CN1C(=O)C(NC(=O)C(NC(=O)c1cnccn1)C(C)C)C(C)C (stereo not shown)", "4.00 to 6.00"),
    ("CCC(C=O)NC(=O)C1CC(OC(=O)Nc2cccc([N+](=O)[O-])c2)CN1C(=O)C(NC(=O)C(NC(=O)c1cnccn1)C(C)C)C(C)C (stereo not shown) [Compound 40] (Pyrazinecarbonyl-VV[Hyp]([CO-X30])[Abu]-aldehyde; configuration not given here)", "4.00 to 6.00"),
    ("CCC(C=O)NC(=O)C1CC(OCc2ccccc2)CN1C(=O)C(NC(=O)c1cccc(C)c1O)C(C)C (stereo not shown)", "< 4.00"),
    ("CCC(NC(=O)C(CC(C)C)NC(=O)C(NC(=O)C(NC(=O)c1cnccn1)C(C)C)C(C)C)C(=O)C(=O)NCc1ccccc1OC (stereo not shown)", "< 4.00"),
    ("CCC(C=O)NC(=O)C1CC(OCc2ccc(C#N)cc2)CN1C(=O)C(NC(=O)C(NC(=O)c1cnccn1)C(C)C)C(C)C (stereo not shown) [Compound 15] (Pyrazinecarbonyl-VV[Hyp](X33)[Abu]-aldehyde; configuration not given here)", "4.00 to 6.00"),
    ("CCC(C=O)NC(=O)C1CC(OCc2noc(-c3c(C)noc3C)n2)CN1C(=O)C(NC(=O)C(NC(=O)c1cnccn1)C(C)C)C(C)C (stereo not shown) [Compound 5] (Pyrazinecarbonyl-VV[Hyp](X35)[Abu]-aldehyde; configuration not given here)", "4.00 to 6.00"),
    ("CCC(C=O)NC(=O)C1CC(OCc2ccccc2)CN1C(=O)C(NC(=O)c1cc(C)oc1C)C(C)C (stereo not shown)", "< 4.00"),
    ("CCC(C=O)NC(=O)C1CC(OCc2ccccc2-c2ccccc2)CN1C(=O)C(NC(=O)C(NC(=O)c1cnccn1)C(C)C)C(C)C (stereo not shown) [Compound 11] (Pyrazinecarbonyl-VV[Hyp](X11)[Abu]-aldehyde; configuration not given here)", "4.00 to 6.00"),
    ("CCC(C=O)NC(=O)C1CC(OCc2ccccc2)CN1C(=O)C(NC(=O)C(Cc1ccc2ccccc2c1)NC(=O)c1cnccn1)C(C)C (stereo not shown) [Compound 132] (Pyrazinecarbonyl-[2Nal]V[Hyp](Bn)[Abu]-aldehyde; configuration not given here)", "4.00 to 6.00"),
    ("CCC(C=O)NC(=O)C1CC(OCc2ccccc2)CN1C(=O)C(NC(=O)C(NC(=O)CO)C(C)C)C(C)C (stereo not shown) [Compound 82] (Glycolyl-VV[Hyp](Bn)[Abu]-aldehyde; configuration not given here)", "4.00 to 6.00"),
    ("CCC(C=O)NC(=O)C1CC(OCc2ccc(C(F)(F)F)cc2)CN1C(=O)C(NC(=O)C(NC(=O)c1cnccn1)C(C)C)C(C)C (stereo not shown) [Compound 17] (Pyrazinecarbonyl-VV[Hyp](X24)[Abu]-aldehyde; configuration not given here)", "4.00 to 6.00"),
    ("CCC(C=O)NC(=O)C1CC(OCc2ccccc2)CN1C(=O)C(NC(=O)COc1ccccc1C=O)C(C)C (stereo not shown)", "< 4.00"),
    ("CCC(C=O)NC(=O)C1CC(OC(=O)Nc2c(Cl)cccc2Cl)CN1C(=O)C(NC(=O)C(NC(=O)c1cnccn1)C(C)C)C(C)C (stereo not shown) [Compound 45] (Pyrazinecarbonyl-VV[Hyp]([CO-X46])[Abu]-aldehyde; configuration not given here)", "4.00 to 6.00"),
]
